B1: HDV Ribozyme (parent)
chain: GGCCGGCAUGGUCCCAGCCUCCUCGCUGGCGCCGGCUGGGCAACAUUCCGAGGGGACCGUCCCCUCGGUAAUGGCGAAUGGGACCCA

Variants of: B1
Experiment: self-cleavage, relative activity (ratio to wild type); higher = more cleavage; co-transcriptional
Assay Readout: self-cleavage

Variant String	Assay Readout	Measured
C14A C48A	self-cleavage	0.485
G34U G59A	self-cleavage	0.203
G34U A83C	self-cleavage	0.133
C26U A56G	self-cleavage	1.08
A56C C61A	self-cleavage	1.13
C48A A83U	self-cleavage	0.465
G34C G40C	self-cleavage	0.113
A78C C86U	self-cleavage	0.225
G17C C84G	self-cleavage	0.18
C24G U69G	self-cleavage	0.332
A16G G39U	self-cleavage	0.582
C15G U37A	self-cleavage	0
U37G C62G	self-cleavage	0.0791
C7A C48G	self-cleavage	0.462
A8U C61A	self-cleavage	0.831
U46G C62A	self-cleavage	0.575
G28U C63G	self-cleavage	0.262
G25C C66G	self-cleavage	0.0978
U12C C85G	self-cleavage	0.447
G39A A71U	self-cleavage	0.383
A51C C62A	self-cleavage	0.623
U12A U72C	self-cleavage	0.277
